In this section we review reported pKd values for a set of binders.
- target_under_test: human TGFßRII (antigen of the Octet experiments) (human, UniProt P37173 23-166)
- Sequence (P37173 23-166): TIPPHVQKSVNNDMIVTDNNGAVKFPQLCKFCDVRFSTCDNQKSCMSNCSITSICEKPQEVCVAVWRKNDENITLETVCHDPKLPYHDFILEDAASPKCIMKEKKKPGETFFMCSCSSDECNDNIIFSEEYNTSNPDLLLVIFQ
- test_summary: BLI (Octet)
pKd: −log10 of the molar value.

binder	pKd
H1.56 L1 XENP34512 (antibody, V domains shown) VH: QLQVQESGPGLVKPSETLSLTCTVSGGSISNSYFSWGWIRQPPGKGLEWIGSFYYGGKTYYNPSLKSRATISIDTSKSQFSLKLSSVTAADTAVYYCPRGPTMIRGVIDSWGQGTLVTVSS VL: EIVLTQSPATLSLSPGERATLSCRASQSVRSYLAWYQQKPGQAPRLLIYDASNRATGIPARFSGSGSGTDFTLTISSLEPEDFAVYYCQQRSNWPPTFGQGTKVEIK	9.69
H1.70 L1 XENP34526 (antibody, V domains shown) VH: QLQVQESGPGLVKPSETLSLTCTVSGGSISNSYFSWGWIRQPPGKGLEWIGSFYYGEKTYYNPSLKGRATISIDTSKSQFSLKLSSVTAADTAVYYCPRGPTMIRGVIDSWGQGTLVTVSS VL: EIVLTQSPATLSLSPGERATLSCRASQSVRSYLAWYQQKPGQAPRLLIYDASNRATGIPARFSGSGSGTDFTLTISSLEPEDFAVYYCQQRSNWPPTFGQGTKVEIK	9.10
H1.72 L1 XENP34528 (antibody, V domains shown) VH: QLQVQESGPGLVKPSETLSLTCTVSGGSISNSYFSWGWIRQPPGKGLEWIGSFYYGEKTYYNPSLKSRVTISIDTSKSQFSLKLSSVTAADTAVYYCPRGPTMIRGVIDSWGQGTLVTVSS VL: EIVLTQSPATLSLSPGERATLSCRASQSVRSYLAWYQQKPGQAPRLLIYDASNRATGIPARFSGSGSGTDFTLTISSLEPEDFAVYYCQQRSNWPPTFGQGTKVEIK	9.38
